assay: Selectivity index, ratio of CC50 for human HepG2.2.15 cells to IC50 for Hepatitis B virus infected in human HepG2.2.15 cells assessed as inhibition of HBsAg secretion; type: functional
The following compounds are listed with their measured Ratio CC50/IC50 values.

Example compounds with recorded Ratio CC50/IC50:
COc1cc(/C=C/C(=O)O/N=C/c2cccs2)cc(OC)c1OC | 4.36
COc1ccc(/C=C/C(=O)O/N=C/c2ccco2)cc1OC | 3.26
COc1ccc(/C=C/C(=O)O/N=C/c2cccs2)cc1OC | 2.51
COc1cc(/C=C/C(=O)O)cc2c1OCO2 | 1.62
COc1cc(/C=C/C(=O)O/N=C/c2ccccn2)cc(OC)c1OC | 5.52

Kindly note the recorded Ratio CC50/IC50 for `COc1cc(/C=C/C(=O)O/N=C/c2ccccn2)cc2c1OCO2` , which is 10.27

Note to self: Ratio CC50/IC50 recorded for `O=C(/C=C/c1ccc2c(c1)OCO2)O/N=C/c1cccs1` was 3.51

Ratio CC50/IC50 reading for `COc1ccc(/C=C/C(=O)O)cc1OC` : <0.89

Data provenance is ChEMBL document CHEMBL3576819.
